Value source: ChEMBL document CHEMBL2163271

System: PC-9
Test: Cytotoxicity against human PC9 cells assessed as cell viability after 48 hrs by SRB assay
Format: functional, cell-based
Conditions: PC-9, 48 h
Recorded pIC50 for the following molecules
pIC50 is a log-scale quantity: -log10 of the concentration expressed in molar.

smiles=COc1ccc2c3c(c4cc(OC)c(OC)cc4c2c1)C[C@H]1C[C@H](O)CCN1C3 endpoint_value=8.09

Lab note: measured pIC50 of COc1ccc2c3c(c4cc(OC)c(OC)cc4c2c1)C[C@H]1CCCCN1C3 was 8.26

---

Experiment: Cytotoxicity against human PC9IR cells assessed as cell viability after 48 hrs by SRB assay
Assay type: functional, cell-based
test readout: IC50 (nM)
Please respond with the number in nM and leave the unit unwritten.

smiles=COc1ccc2c3c(c4cc(OC)c(OC)cc4c2c1)C[C@H]1C[C@H](O)CCN1C3 test_readout=IC50 endpoint_value=43.2

Next item in the queue.
Lab note: measured IC50 of COc1ccc2c3c(c4cc(OC)c(OC)cc4c2c1)C[C@H]1CCCCN1C3 was 6.8

---

Test system: DU-145
Test: Cytotoxicity against human DU145 cells after 2 hrs by methylene blue staining-based spectrophotometric analysis
Assay type: functional, cell-based
Details: DU-145, 2 h
Recorded pIC50 for the following compounds
pIC50 is a log-scale quantity: -log10 of the concentration expressed in molar.

Below: 8 compounds and their reported pIC50.
smiles=COc1ccc2c3c(c4cc(OC)c(OC)cc4c2c1)C[C@H]1CC[C@@H](O)CN1C3 endpoint_value=7.18
smiles=COc1ccc2c3c(c4cc(OC)c(OC)cc4c2c1)C[C@H]1C[C@H](O)CCN1C3 endpoint_value=7.96
smiles=COC1=C[C@@H]2Cc3c(c4ccc(OC)cc4c4cc(OC)c(OC)cc34)CN2C1 endpoint_value=4.99
smiles=COc1ccc2c3c(c4cc(OC)c(OC)cc4c2c1)C[C@H]1CC(=O)CN1C3 endpoint_value=6.15
smiles=CC[C@@]1(O)CCN2Cc3c(c4cc(OC)c(OC)cc4c4cc(OC)ccc34)C[C@H]2C1 endpoint_value=6.11
smiles=COc1ccc2c3c(c4cc(OC)c(OC)cc4c2c1)C[C@H]1C[C@H](O)CN1C3 endpoint_value=5.74
smiles=COc1ccc2c3c(c4cc(OC)c(OC)cc4c2c1)C[C@H]1[C@@H](O)CCN1C3 endpoint_value=5.49
smiles=COc1ccc2c3c(c4cc(OC)c(OC)cc4c2c1)C[C@H]1CCCCN1C3 endpoint_value=8.80

Hey, DU-145 data for COc1ccc2c3c(c4cc(OC)c(OC)cc4c2c1)C[C@H]1C[C@@H](O)CN1C3 : pIC50 came out at 6.15

Hey, DU-145 data for COc1ccc2c3c(c4cc(OC)c(OC)cc4c2c1)C[C@H]1[C@H](O)CCCN1C3 : pIC50 came out at 6.70

Hey, DU-145 data for COc1ccc2c3c(c4cc(OC)c(OC)cc4c2c1)C[C@H]1C[C@H](OC)CCN1C3 : pIC50 came out at 7.25

Hey, DU-145 data for COc1ccc2c3c(c4cc(OC)c(OC)cc4c2c1)C[C@H]1CCC(=O)CN1C3 : pIC50 came out at 5.77

Hey, DU-145 data for COc1ccc2c3c(c4cc(OC)c(OC)cc4c2c1)C[C@H]1C[C@@H](OC)CCN1C3 : pIC50 came out at 5.45

Hey, DU-145 data for COc1ccc2c3c(c4cc(OC)c(OC)cc4c2c1)C[C@H]1C[C@@H](O)CCN1C3 : pIC50 came out at 7.23
